Experiment: CEETOX_H295R_PROG_noMTC: CeeTox H295R High-throughput Steroidogenesis Assay for Progesterone (PROG), maximum tolerated concentration (MTC) filtered results only (AID 2283920)
Details: actives raise or lower the signal
Active and inactive are the calls of the source. The calls were made as follows: active = hit-call score of the fitted dose curve at least 0.9, where 1 is the maximum; inactive = score below 0.9.
Outcome codes: Yes (active), No (inactive)

[[record]]
compound = "COc1ccc(C(=O)/C(Br)=C\\C(=O)O)cc1"
class_name = "Yes"

[[record]]
compound = "N#Cc1ccc(C(c2ccc(C#N)cc2)n2cncn2)cc1"
class_name = "No"

[[record]]
compound = "CCCC=C(C=O)CC"
class_name = "No"

[[record]]
compound = "N#Cc1ccc(C2CCCc3cncn32)cc1 (centres undefined)"
class_name = "No"


* * *

Biological target: Hepatocyte nuclear factor 6 (Homo sapiens) (UniProt Q9UBC0)
Sequence (Q9UBC0 whole entry, looked up): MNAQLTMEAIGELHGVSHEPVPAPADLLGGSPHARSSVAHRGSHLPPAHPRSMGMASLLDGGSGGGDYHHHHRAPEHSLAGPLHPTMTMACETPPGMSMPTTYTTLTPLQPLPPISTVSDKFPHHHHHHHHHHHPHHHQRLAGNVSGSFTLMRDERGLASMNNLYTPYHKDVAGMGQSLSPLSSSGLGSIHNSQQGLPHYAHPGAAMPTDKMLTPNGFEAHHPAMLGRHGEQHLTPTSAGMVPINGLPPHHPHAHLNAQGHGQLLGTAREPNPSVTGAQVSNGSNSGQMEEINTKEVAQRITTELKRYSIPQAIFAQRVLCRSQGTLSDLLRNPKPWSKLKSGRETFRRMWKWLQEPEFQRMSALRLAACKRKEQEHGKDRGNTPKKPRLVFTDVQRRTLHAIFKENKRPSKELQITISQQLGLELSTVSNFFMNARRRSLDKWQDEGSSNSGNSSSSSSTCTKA
Test: ATG_HNF6_CIS: Attagene CIS-FACTORIAL HepG2 Assay for human Hepatocyte Nuclear Factor 6 (HNF6) (AID 2282952)
Conditions: HepG2 Attagene cis-factorial HNF6 reporter transcription; actives raise or lower the signal
Activity calls are given as the source filed them. Rule for the calls: active = hit-call score of the fitted dose curve at least 0.9, where 1 is the maximum; inactive = score below 0.9.
Outcome codes: T (active), F (inactive)

[[record]]
compound = "CC/C=C\\CCOC(=O)c1ccccc1O"
class_name = "F"

[[record]]
compound = "O=C(O)c1ccc2c(c1)C(=O)OC2=O"
class_name = "F"

[[record]]
compound = "C=C(C)C1CC=C(C)C(OC(C)=O)C1 (stereo not drawn)"
class_name = "F"

[[record]]
compound = "CC(C)OC(=O)c1ccccc1"
class_name = "F"

[[record]]
compound = "CCCCCCC=O"
class_name = "F"

[[record]]
compound = "CCCCOCCOC(=O)COc1ccc(Cl)cc1Cl"
class_name = "F"

[[record]]
compound = "C=Cc1ccc(OC(C)=O)cc1"
class_name = "F"

[[record]]
compound = "CCCCCCCCC(CO)CCCCCC (stereo not drawn)"
class_name = "T"


* * *

Assay: ATG_MRE_CIS: Attagene CIS-FACTORIAL HepG2 Assay for human Metal Responsive Element (MRE) (AID 2282954)
Conditions: HepG2 MRE cis-reporter transcription, Attagene multiplex; actives raise or lower the signal
Activity calls are given as the source filed them. The calls were made as follows: active = hit-call score of the fitted dose curve at least 0.9, where 1 is the maximum; inactive = score below 0.9.
Outcome codes: active, inactive

[[record]]
compound = "CC(=O)OC1CCCCC1C(C)(C)C (centres undefined)"
class_name = "inactive"

[[record]]
compound = "C=C1C[C@H]2[C@@H]3C=C(C)C4=CC(=O)CC[C@]4(C)[C@H]3CC[C@]2(C)[C@@]1(OC(C)=O)C(C)=O"
class_name = "active"

[[record]]
compound = "CCC(C)C(=O)OC (centres undefined)"
class_name = "inactive"

[[record]]
compound = "CCCCCCCOC(=O)c1ccc(O)cc1"
class_name = "active"

[[record]]
compound = "COC(C=C(C)CCC=C(C)C)OC"
class_name = "inactive"

[[record]]
compound = "C=Cc1ccc(OC(C)=O)cc1"
class_name = "inactive"

[[record]]
compound = "CCCC1CCCC(=O)O1 (centres undefined)"
class_name = "inactive"

[[record]]
compound = "C=CC(=O)OCC(C)OCC(C)OCC(C)OC(=O)C=C (centres undefined)"
class_name = "active"

[[record]]
compound = "Cc1c(Cl)cccc1Cl"
class_name = "inactive"

[[record]]
compound = "NC(=O)Nc1ccccc1"
class_name = "inactive"

[[record]]
compound = "CCCCC(CC)COS(=O)(=O)O (centres undefined)"
class_name = "inactive"

[[record]]
compound = "O=C(OCCc1ccccc1)c1ccccc1"
class_name = "inactive"

[[record]]
compound = "CCCCC(=O)O"
class_name = "inactive"

[[record]]
compound = "O=S(=O)(O)c1ccc(N=Nc2c(O)ccc3ccccc23)cc1"
class_name = "inactive"


* * *

Read-out: Collagen I, COL1A1 (gene 1277)
Experiment: BSK_MyoF_CollagenI: BioMAP Diversity Plus: MyoF Assay for Collagen I Biomarker Activity (AID 2284238)
Conditions: primary human lung fibroblasts
Calls of active or inactive are those of the source. How the source made its calls: active means hit-call score of the fitted dose curve at least 0.9, where 1 is the maximum; inactive means score below 0.9.
Metric: AC50

[[record]]
compound = "CC/C=C\\CCOC(=O)c1ccccc1O"
result = "31.1 µM (active)"

[[record]]
compound = "C=CC(=O)OCC(C)OCC(C)OCC(C)OC(=O)C=C (stereo unspecified)"
result = "30.4 µM (active)"

[[record]]
compound = "CC(C)c1cccc(C(C)C)c1N"
result = "inactive"

[[record]]
compound = "c1ccc2sc(SSN3CCOCC3)nc2c1"
result = "15.5 µM (active)"

[[record]]
compound = "O=C1CCCCCCCCCCCN1"
result = "inactive"

[[record]]
compound = "c1ccc2c(c1)[nH]c1ccccc12"
result = "inactive"

[[record]]
compound = "Oc1c(Cl)cc(Cl)c(Cl)c1Cl"
result = "20 µM (active)"

[[record]]
compound = "O=C1CCCCCCCCCCC1"
result = "inactive"

[[record]]
compound = "CC/C=C\\C/C=C\\C/C=C\\CCCCCCCC(=O)OC"
result = "9.7 µM (active)"

[[record]]
compound = "Cc1c(O)cccc1O"
result = "inactive"

[[record]]
compound = "CCNc1nc(NC(C)(C)C)nc(OC)n1"
result = "inactive"

[[record]]
compound = "COc1ccc(C(=O)c2ccccc2)c(O)c1"
result = "inactive"

[[record]]
compound = "CC=C(C)C(C)=O"
result = "inactive"

[[record]]
compound = "CCCCCCCO"
result = "inactive"

[[record]]
compound = "CCCCCC1=CCCC1=O"
result = "inactive"

[[record]]
compound = "CCCCCCC=O"
result = "inactive"

[[record]]
compound = "CC(Cl)COP(=O)(OCC(C)Cl)OCC(C)Cl (stereo unspecified)"
result = "inactive"

[[record]]
compound = "C=C(C)C(=O)OCCCCCCCCCCCC"
result = "inactive"

[[record]]
compound = "CC(C)[N+](C)(CCOC(=O)C1c2ccccc2Oc2ccccc21)C(C)C"
result = "inactive"

[[record]]
compound = "CCOC(=O)C1=NOC(c2ccccc2)(c2ccccc2)C1"
result = "inactive"

[[record]]
compound = "CCOC(=O)/C=C\\C(=O)OCC"
result = "inactive"

[[record]]
compound = "CC1(C)CC(O)CC(C)(C)N1[O]"
result = "inactive"

[[record]]
compound = "CC=C(C)C=CC=C(C)C"
result = "inactive"

[[record]]
compound = "Nc1cccc(N)n1"
result = "inactive"

[[record]]
compound = "O=C(Cl)c1c(Cl)c(Cl)c(C(=O)Cl)c(Cl)c1Cl"
result = "inactive"

[[record]]
compound = "C=CC(=O)OCCCCCCCC(C)C"
result = "inactive"


* * *

Assay: ATG_Sox_CIS: Attagene CIS-FACTORIAL HepG2 Assay for human SRY-box transcription factor (SOX) (AID 2282960)
Conditions: HepG2 Attagene cis-factorial SOX reporter, mRNA; actives raise or lower the signal
Active and inactive are the calls of the source. Rule for the calls: active = hit-call score of the fitted dose curve at least 0.9, where 1 is the maximum; inactive = score below 0.9.
Outcome codes: T for active, F for inactive

[[record]]
molecule = "COC(C=C(C)CCC=C(C)C)OC"
class_name = "F"

[[record]]
molecule = "CCCC=C(C=O)CC"
class_name = "F"

[[record]]
molecule = "COC(=O)CC(C)CCC=C(C)C (stereo not given)"
class_name = "F"

[[record]]
molecule = "CC(C)c1ccc(O)c(C(C)C)c1"
class_name = "F"

[[record]]
molecule = "CC(C)=CCCC(C)=CC#N"
class_name = "F"

[[record]]
molecule = "CCCCCCCCCC[N+](C)(CCCCCCCCCC)CCC[Si](OC)(OC)OC"
class_name = "F"

[[record]]
molecule = "C=C[C@@]1(C)CC(=O)[C@]2(O)[C@@]3(C)[C@@H](O)CCC(C)(C)[C@@H]3[C@H](O)[C@H](OC(C)=O)[C@@]2(C)O1"
class_name = "F"

[[record]]
molecule = "CC1(C)CCC[C@]2(C)[C@H]3CC(=O)O[C@]3(C)CC[C@@H]12"
class_name = "F"

[[record]]
molecule = "CC(CC=O)CC(C)(C)C (stereo not given)"
class_name = "F"

[[record]]
molecule = "COC(=O)c1ccc(C(=O)OC)c(C(=O)OC)c1"
class_name = "F"

[[record]]
molecule = "Cc1c(Cl)cccc1Cl"
class_name = "F"

[[record]]
molecule = "N#CC1(N)CCCCC1"
class_name = "F"

[[record]]
molecule = "CC1(C)[C@@H]2CC[C@@]1(C)C(=O)C2"
class_name = "F"

[[record]]
molecule = "CCCC1CCCC(=O)O1 (stereo not given)"
class_name = "F"

[[record]]
molecule = "COC(OC)(C(=O)c1ccccc1)c1ccccc1"
class_name = "F"

[[record]]
molecule = "C=CC(=O)OCCCCCCOC(=O)C=C"
class_name = "F"

[[record]]
molecule = "CCc1cccc(CC)c1"
class_name = "F"

[[record]]
molecule = "C=CC(=O)NCOCCCC"
class_name = "F"

[[record]]
molecule = "CC(=O)C(C)C"
class_name = "F"

[[record]]
molecule = "CCN(CC)c1cccc(C)c1"
class_name = "F"

[[record]]
molecule = "CCOC(=O)C1=NN(c2ccc(Cl)cc2Cl)C(C)(C(=O)OCC)C1 (stereo not given)"
class_name = "F"

[[record]]
molecule = "CCN1CN(CC)CN(CC)C1"
class_name = "T"

[[record]]
molecule = "C=C(C)C(=O)OCC(O)COc1ccc(C(C)(C)c2ccc(OCC(O)COC(=O)C(=C)C)cc2)cc1 (stereo not given)"
class_name = "T"

[[record]]
molecule = "C1CCSC1"
class_name = "F"

[[record]]
molecule = "Nc1ccc(C(=O)OCCCOC(=O)c2ccc(N)cc2)cc1"
class_name = "F"

[[record]]
molecule = "O=C1CCCCCCCCCCC1"
class_name = "F"

[[record]]
molecule = "CCCCc1ccc(Cl)cc1"
class_name = "F"

[[record]]
molecule = "CCCCCCCCCCCCCCCCCCOS(=O)(=O)O"
class_name = "F"

[[record]]
molecule = "CC(=O)/C=C/C1C(C)=CCCC1(C)C (stereo not given)"
class_name = "F"

[[record]]
molecule = "Nc1ccc(O)c([N+](=O)[O-])c1"
class_name = "F"

[[record]]
molecule = "C=C(C)C(=O)OCCCCCCCCCCCC"
class_name = "F"

[[record]]
molecule = "O=C(O)C(F)(F)C(F)(F)C(F)(F)C(F)(F)C(=O)O"
class_name = "F"

[[record]]
molecule = "C[Si](C)(C)N[Si](C)(C)C"
class_name = "F"

[[record]]
molecule = "CC(=O)CC(=O)Nc1ccccc1C"
class_name = "F"

[[record]]
molecule = "CCOc1ccc(NC(N)=O)cc1"
class_name = "F"

[[record]]
molecule = "O=C(O)CCCC(=O)O"
class_name = "F"

[[record]]
molecule = "O=C(Oc1ccccc1)c1ccccc1O"
class_name = "F"

[[record]]
molecule = "CC(c1cc(C(C)(C)C)cc(C(C)(C)C)c1O)c1cc(C(C)(C)C)cc(C(C)(C)C)c1O"
class_name = "F"

[[record]]
molecule = "CCOC(=O)c1ccc(C)cc1"
class_name = "F"

[[record]]
molecule = "CC(C)C(=O)OCCOc1ccccc1"
class_name = "F"

[[record]]
molecule = "CC(C)=CCl"
class_name = "F"

[[record]]
molecule = "CC(=O)OC1CCCCC1"
class_name = "F"

[[record]]
molecule = "CCCc1ccc(O)c(OC)c1"
class_name = "F"

[[record]]
molecule = "C[Si]1(C)O[Si](C)(C)O[Si](C)(C)O[Si](C)(C)O[Si](C)(C)O1"
class_name = "F"

[[record]]
molecule = "CC1=CCC2CC1C2(C)C (stereo not given)"
class_name = "F"

[[record]]
molecule = "CC12CCC(CC1)C(C)(C)O2"
class_name = "F"

[[record]]
molecule = "CCCCNC(=S)NCCCC"
class_name = "F"

[[record]]
molecule = "CCC(C)c1ccccc1 (stereo not given)"
class_name = "F"

[[record]]
molecule = "O=C1c2ccccc2C(=O)c2cc(S(=O)(=O)O)ccc21"
class_name = "F"

[[record]]
molecule = "OCCCc1ccccc1"
class_name = "F"

[[record]]
molecule = "C=CC(=O)NC(C)(C)C"
class_name = "F"

[[record]]
molecule = "O=C(OCCc1ccccc1)c1ccccc1"
class_name = "F"

[[record]]
molecule = "Cc1c(C(=O)c2c[nH]n(C)c2=O)ccc(S(C)(=O)=O)c1C1=NOCC1"
class_name = "F"

[[record]]
molecule = "C=C(C)C1CC=C(C)C(OC(C)=O)C1 (stereo not given)"
class_name = "F"

[[record]]
molecule = "CC1=C(O)C(=O)C(C)O1 (stereo not given)"
class_name = "F"

[[record]]
molecule = "CCCCC(=O)O"
class_name = "F"

[[record]]
molecule = "CCCCOCC(C)O (stereo not given)"
class_name = "F"

[[record]]
molecule = "COc1ccc(C(=O)c2ccccc2)c(O)c1"
class_name = "F"

[[record]]
molecule = "Cc1noc(NS(=O)(=O)c2ccc(N)cc2)c1C"
class_name = "F"

[[record]]
molecule = "COc1cc(C)ccc1O"
class_name = "F"

